Below is a list of entries, each paired with its recorded relative growth value.
Test system: Flavobacterium 2 (Flavobacterium succinicans)
ASSAY_DETAILS: relative growth (AUC of 72 h growth curve relative to DMSO control, dAUC) (ratio); higher = more growth (less inhibition), active = hit call of the paper
RUN_PARAMETERS: 20 µM
Number only, please.

Sample answers from the record:
MOLECULE: CCOCN(C(=O)CCl)c1c(C)cccc1CC
MEASUREMENT_TYPE: relative growth
REPORTED: 0.946

MOLECULE: C/C(=N\C#N)N(C)Cc1ccc(Cl)nc1
MEASUREMENT_TYPE: relative growth
REPORTED: 1.02

MOLECULE: Cc1c(COC(=O)[C@@H]2[C@H](/C=C(\Cl)C(F)(F)F)C2(C)C)cccc1-c1ccccc1 (racemic)
MEASUREMENT_TYPE: relative growth
REPORTED: 1

relative growth recorded for this molecule, `CNC(=O)c1cc(Cl)cc(C)c1NC(=O)c1cc(Br)nn1-c1ncccc1Cl` , is 1.03

relative growth recorded for this molecule, `CCC(CC)Nc1c([N+](=O)[O-])cc(C)c(C)c1[N+](=O)[O-]` , is 0.957

relative growth recorded for this molecule, O=C1C2CC=CCC2C(=O)N1SC(Cl)(Cl)Cl (stereo unspecified) , is 0.9

relative growth recorded for this molecule, `CS(=O)(=O)c1ccc(C(=O)C2C(=O)CCCC2=O)c([N+](=O)[O-])c1` , is 1.04

relative growth recorded for this molecule, `CCc1cc(C)cc(CC)c1-c1c(OC(=O)C(C)(C)C)n2n(c1=O)CCOCC2` , is 0.943
